From: patent US20260216347A1

Recorded pIC50 for the following compounds
target: IRAK3 (Homo sapiens, UniProt Q9Y616)
Construct: IRAK Endogenous HTRF Degradation Assay; endogenous in cells
Sequence (Q9Y616 whole entry): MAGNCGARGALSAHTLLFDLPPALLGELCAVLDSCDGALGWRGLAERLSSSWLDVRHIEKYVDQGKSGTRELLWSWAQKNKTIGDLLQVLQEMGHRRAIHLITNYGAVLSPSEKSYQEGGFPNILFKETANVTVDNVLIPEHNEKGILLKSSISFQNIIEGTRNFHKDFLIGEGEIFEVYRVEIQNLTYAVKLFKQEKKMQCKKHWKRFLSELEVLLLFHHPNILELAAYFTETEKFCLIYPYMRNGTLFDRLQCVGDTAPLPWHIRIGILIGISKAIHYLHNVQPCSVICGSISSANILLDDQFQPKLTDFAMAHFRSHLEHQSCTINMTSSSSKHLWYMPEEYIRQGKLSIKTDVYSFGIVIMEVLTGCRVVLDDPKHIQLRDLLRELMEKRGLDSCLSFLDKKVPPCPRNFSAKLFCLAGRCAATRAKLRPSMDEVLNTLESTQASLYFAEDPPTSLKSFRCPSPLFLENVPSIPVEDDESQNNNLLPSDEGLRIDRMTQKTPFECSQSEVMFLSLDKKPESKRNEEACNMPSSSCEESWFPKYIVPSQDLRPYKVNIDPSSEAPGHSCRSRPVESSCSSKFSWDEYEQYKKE
measurementProtocol: IRAK3 biochemical binding assay (LanthaScreen Eu Kinase Binding, TR-FRET)
The quantity pIC50 is defined as the negative base-10 logarithm of the molar concentration.

These recorded examples may help you get a feel for the data.
compound	target	experimentalValue
COc1cc(N2CCN(CCN3CCC(n4cc(Nc5ncc(-c6cc(C)c(F)cc6F)n6ccnc56)cn4)CC3)CC2)ccc1C1CCC(=O)NC1=O (centres unmarked) [Compound 25]	IRAK3 (Homo sapiens, UniProt Q9Y616)	8.77
O=C1CCC(c2ccc(N3CCN(CC[C@H]4CC[C@H](n5cc(Nc6ncc(C78CCCC7C8)n7ccnc67)cn5)CC4)CC3)cc2)C(=O)N1 (some centres unmarked) [Compound 100]	IRAK3 (Homo sapiens, UniProt Q9Y616)	8.40
Cc1cc(-c2cnc(Nc3cnn([C@H]4CC[C@@H](CCN5CC6(C5)CN(c5ccc(C7CCC(=O)NC7=O)cc5)C6)CC4)c3)c3nccn23)c(F)cc1F (some centres unmarked) [Compound 101]	IRAK3 (Homo sapiens, UniProt Q9Y616)	8.12

Reported pIC50 ( Cc1cc(-c2cnc(Nc3cnn([C@H]4CCCN(CCN5CCN(c6ccc(C7CCC(=O)NC7=O)cc6)CC5)CC4)c3)c3nccn23)c(F)cc1F (single isomer, unassigned) [Compound 111] ) = 10.30

Value of measured pIC50 for the entry Cc1cc(-c2cnc(Nc3cnn([C@H]4CCN(CCN5CCN(c6ccc(C7CCC(=O)NC7=O)cc6)C[C@@H]5C)[C@@H](C)C4)c3)c3nccn23)c(F)cc1F (some centres unmarked) [Compound 34] : 8.82

The compound listed as Cc1cc(-c2ccc(Nc3cnn([C@H]4CC[C@@H](CCN5CCN(c6ccc(C7CCC(=O)NC7=O)cc6)CC5)CC4)c3)c3nccn23)c(F)cc1F (some centres unmarked) [Compound 103] shows pIC50 equal to 8.70

Entry Cc1cc(-c2cnc(Nc3cnn(C4CCN(CC(=O)N5CCN(c6ccc7c(c6)C(=O)N(C6CCC(=O)NC6=O)C7)CC5)CC4)c3)c3nccn23)c(F)cc1F (centres unmarked) [Compound 18] , pIC50 reported as 9.30

// pIC50 value for COc1ccc(-c2cnc(Nc3cnn(C4CCN(CCN5CCN(c6ccc(C7CCC(=O)NC7=O)cc6)CC5)CC4)c3)c3nccn23)cc1 (centres unmarked) [Compound 87] : 8.40

// sample Cc1ccccc1-c1cnc(Nc2cnn(C3CCN(CCN4CCN(c5ccc(C6CCC(=O)NC6=O)cc5)CC4)CC3)c2)c2nccn12 (centres unmarked) [Compound 79] , its pIC50 was 6.59

The reported pIC50 of the compound Cc1cc(-c2cnc(Nc3cnn([C@H]4C[C@@H](CCN5CCN(c6ccc(C7CCC(=O)NC7=O)cc6)CC5)C4)c3)c3nccn23)c(F)cc1F (some centres unmarked) [Compound 96] was 9.66

The value of pIC50 measured for the compound Cc1cc(-c2cnc(Nc3cnn([C@H]4CC[C@H](CCN5CCN(c6ccc7c(C8CCC(=O)NC8=O)nn(C)c7c6)CC5)CC4)c3)c3nccn23)c(F)cc1F (some centres unmarked) [Compound 105] turned out to be 9.74
